Measured CC50 at 72 h by item
Test: Cytotoxicity against human HuH7 cells expressing chimeric gene encoding firefly luciferase and neomycin phosphotransferase assessed as cell proliferation after 72 hrs by MTT assay
Format: cell-based, Huh-7
measured.endpoint: CC50 at 72 h

>>> experimental_result("CCOc1cc(/C=N/NC(=O)C(C)Oc2ccc([N+](=O)[O-])cc2)ccc1OC(=O)c1ccc(Cl)cc1Cl (centres undefined)")
"> 125 µM"
>>> experimental_result("O=C(COc1ccc([N+](=O)[O-])cc1)N/N=C/c1ccccc1OC(=O)c1sc2ccccc2c1Cl")
"> 125 µM"
>>> experimental_result("C=CCc1cc(/N=N/C(=O)c2cc3cc([N+](=O)[O-])ccc3o2)cc(OCC)c1OCc1ccc(Cl)cc1")
"> 125 µM"
>>> experimental_result("COc1ccc(C(=O)Cc2ccc3ccccc3c2/C=N/NC(=O)COc2ccc([N+](=O)[O-])cc2)cc1")
"> 125 µM"

Values were extracted from ChEMBL document CHEMBL1914390.
